# assay system: E. coli nitroreductase A (NfsA) (Escherichia coli)
# Sequence (P17117 whole entry): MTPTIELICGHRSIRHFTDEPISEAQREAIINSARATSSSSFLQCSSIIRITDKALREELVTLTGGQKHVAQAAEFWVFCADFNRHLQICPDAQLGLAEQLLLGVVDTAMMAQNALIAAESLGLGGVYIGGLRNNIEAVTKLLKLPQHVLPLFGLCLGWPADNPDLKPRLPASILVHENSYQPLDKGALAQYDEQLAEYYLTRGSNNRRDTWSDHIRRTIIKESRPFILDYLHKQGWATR
experimental endpoint: Ki (µM)
Provide the reading as a plain figure in µM.

Prompt: Recall the recorded Ki for `CC(=O)c1ccc[n+]([C@@H]2O[C@H](COP(=O)([O-])OP(=O)(O)OC[C@H]3O[C@@H](n4cnc5c(N)ncnc54)[C@H](OP(=O)(O)O)[C@@H]3O)[C@@H](O)[C@H]2O)c1` with E. coli nitroreductase A (NfsA) (Escherichia coli) and state it.
Response: 150

Origin of measurements: paper PMC11049802
